Values from paper PMC3189771

- measurement target: protein tyrosine kinase (PTK)
- protocol details: in vitro PTK inhibitory activity by ELISA (brain cytoplasmic tyrosine kinase extract, PGT substrate)
- conditions: genistein as positive control, determined in triplicate
pIC50: −log10 of the molar value.
Catalogue of molecules with associated pIC50
reported endpoint: pIC50

molecule="O=C(c1ccc(F)cc1)c1ccc(O)c(O)c1 [Compound 3c, 4-fluoro-3′,4′-dihydroxyl benzophenone]" result="< 4.30"
molecule="O=C(c1ccc(O)c(O)c1)c1ccccc1I [Compound 4c, 2-iodo-3′,4′-dihydroxyl benzophenone]" result="< 4.30"
molecule="O=C(c1ccc(O)c(O)c1)c1ccccc1F [Compound 1c, 2-fluoro-3′,4′-dihydroxyl benzophenone]" result="< 4.30"
molecule="Oc1ccc(Cc2cccc(F)c2)cc1O [Compound 2d]" result="< 4.30"
molecule="O=C(c1cc(Br)ccc1O)c1cc(O)c(O)cc1Br [Compound 13c]" result="< 4.30"
molecule="Oc1ccc(Cc2c(Br)c(O)c(O)c(O)c2Br)cc1O [Compound 5d]" result="< 4.30"
molecule="Oc1cc(Cc2ccccc2)c(Br)c(Br)c1O [Compound 12d]" result="< 4.30"
molecule="Oc1ccc(Cc2ccccc2F)cc1O [Compound 1d]" result="< 4.30"
molecule="O=C(c1ccc(Cl)cc1)c1ccc(O)c(O)c1 [Compound 10c]" result=4.38
molecule="O=C(c1ccc(O)c(O)c1)c1ccccc1Cl [Compound 8c]" result=4.75
molecule="O=C(c1cccc(F)c1)c1ccc(O)c(O)c1 [Compound 2c, 3-fluoro-3′,4′-dihydroxyl benzophenone]" result="< 4.30"
molecule="O=C(c1ccccc1)c1cc(O)c(O)c(Br)c1Br [Compound 12c]" result="< 4.30"
molecule="Oc1ccc(Cc2ccccc2I)cc1O [Compound 4d, 2-iodo-3′,4′-dihydroxyl diphenylmethane]" result="< 4.30"
molecule="Oc1cc(Br)c(Cc2cc(Br)ccc2O)cc1O [Compound 13d]" result=5.30
molecule="Oc1ccc(Cc2ccccc2Cl)cc1O [Compound 8d]" result=4.83
molecule="Oc1ccc(Cc2ccc(F)cc2)cc1O [Compound 3d]" result="< 4.30"
